Using melting point as the sorting value, the categories are bin 1 = under 40 °C, bin 2 = from 40 °C up to 100 °C, bin 3 = 100 °C and over

Example cases with answers are listed next.
| Compound | Assigned label |
| --- | --- |
| CN1C(=O)C(=O)c2ccccc21 | bin 3 |
| CCOc1cccc(-c2ccccc2)c1 | bin 1 |
| CCCC(=O)N(CSP(=S)(OC)OC)c1ccccc1Cl | bin 2 |
| OC[C@H]1O[C@@H](n2cnc3c2N=CNC[C@H]3O)C[C@@H]1O | bin 3 |
| CC(C)COc1ccc2ccccc2c1 | bin 1 |
| COCCCNc1nc(NCCCOC)nc(SC)n1 | bin 2 |
| Cn1c(=O)c2c(ncn2CCOC(=O)c2cccnc2)n(C)c1=O | bin 3 |
| NS(=O)(=O)c1cc(Cl)c(Cl)c(S(N)(=O)=O)c1 | bin 3 |

Using the reported melting point, which band applies to `c1ccc(Cc2ccccn2)cc1` ?
bin 1

Try `CC1(C)CC[C@]2(C)CC=C3[C@]4(C)CC[C@H]5C(C)(C)[C@@H](O)CC[C@]5(C)[C@H]4CC[C@@]3(C)[C@@H]2C1` next.
bin 3

Try `CC(C)COC=O` next.
bin 1

Try `CNC(=O)Oc1ccc(N(C)C)c(C)c1` next.
bin 2

Try `COc1ccc(C)c(N)c1` next.
bin 2

Try `Cc1ccc(C)[nH]1` next.
bin 1

###

Listing of recorded melting point by entry.
Respond numerically; units are °C and should not be typed.

Example cases with answers are listed next.
| Molecule | Quantitative result |
| --- | --- |
| c1ccc(-c2nc3ccccc3[nH]2)cc1 | 293 |
| CCCCCCCCCCCC[C@H](C)O | 34 |
| Oc1ccccc1C1CCCC1 | 34.5 |
| Nc1ccc(S(=O)(=O)Nc2ccccc2)cc1 | 200 |
| O=C[O-].[K+] | 167 |
| CCCCCCCCCl | -57.8 |
| C=C(C)CCCCCC | -77.8 |
| O=C1C=C2C(=CCOC2O)O1 (stereo not given) | 111 |

Reported melting point, molecule `N#CCON=C(C#N)c1ccccc1` : ____
55

Try `O=C[C@H](O)CO` next.
145

Try `C=C(NC(C)=O)C(=O)CCC(N)=O` next.
130

Try `C[C@@H]1CC[C@@]2(OC1)O[C@H]1C[C@H]3[C@@H]4CC[C@H]5C[C@@H](O)CC[C@]5(C)[C@H]4CC[C@]3(C)[C@H]1[C@@H]2C` next.
197

Try `Clc1ccc(I)cc1` next.
57

Try `c1ccn2cccc2c1` next.
75

Try `Cc1cc[nH]c1` next.
-48.4

Try `CC(C)(c1ccc(O)cc1)c1ccc(O)cc1` next.
153

Try `COc1ccc2c3c1O[C@H]1C(=O)CC[C@@]4(O)[C@@H](C2)N(C)CC[C@]314` next.
219

Try `Ic1ccc2c(c1)Oc1ccccc1O2` next.
95

Try `COC(=O)c1cc(Oc2ccc(Cl)cc2Cl)ccc1[N+](=O)[O-]` next.
85

Try `O=[N+]([O-])c1ccc(O/N=C/c2cc(Br)c(O)c(Br)c2)c([N+](=O)[O-])c1` next.
196

Try `CCCCI` next.
-103

Try `c1ccc2c(c1)Cc1ccccc1S2` next.
128

Try `CC(C)(C)OC(=O)C(Cl)(Cl)Cl` next.
25.5

Try `CCC(C)(C)C(C)C` next.
-101

Try `c1ccc(COc2ccccc2)cc1` next.
40

Try `CC(C)(c1cc(Cl)c(O)c(Cl)c1)c1cc(Cl)c(O)c(Cl)c1` next.
135

Try `c1cc2ccc3cccc4ccc(c1)c2c34` next.
151

Try `C[C@@H](N)C(=O)O` next.
292

Try `C1CC2CCC1C2` next.
87.5

Try `Fc1cccc(F)c1` next.
-69
